Test system: MATE1/2K
Assay: clinical
Conditions: both, human, plasma, po, 850 mg
quantity-name: AUC(0-inf) (ng·h/mL)
One number for each entry, in ng·h/mL.

Short answer please: AUC(0-inf), MATE1/2K, entry "CN(C)C(=N)N=C(N)N"
8610

###

Target: organic cation transporter (OCT)2 (Homo sapiens, UniProt O15244)
Sequence (O15244 whole entry): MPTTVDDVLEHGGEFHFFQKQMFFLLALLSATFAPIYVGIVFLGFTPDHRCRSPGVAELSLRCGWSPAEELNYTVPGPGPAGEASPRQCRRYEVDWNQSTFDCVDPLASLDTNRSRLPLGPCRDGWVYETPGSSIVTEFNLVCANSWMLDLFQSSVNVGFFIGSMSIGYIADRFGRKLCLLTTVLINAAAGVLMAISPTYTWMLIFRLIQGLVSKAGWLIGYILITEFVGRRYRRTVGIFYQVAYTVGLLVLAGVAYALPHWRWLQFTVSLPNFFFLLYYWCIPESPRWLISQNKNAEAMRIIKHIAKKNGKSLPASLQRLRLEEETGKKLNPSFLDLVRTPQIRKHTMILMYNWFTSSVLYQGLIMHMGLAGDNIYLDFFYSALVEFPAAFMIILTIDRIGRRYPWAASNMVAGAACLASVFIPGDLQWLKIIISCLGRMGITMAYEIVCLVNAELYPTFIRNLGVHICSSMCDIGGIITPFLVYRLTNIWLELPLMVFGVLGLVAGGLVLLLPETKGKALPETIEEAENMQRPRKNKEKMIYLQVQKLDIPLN
quantity-name: pIC50
Numbers only, as −log10 of the molar value.

What measured pIC50 goes with Cc1cc(Nc2ncnc3ccc(NC4=NC(C)(C)CO4)cc23)ccc1Oc1ccn2ncnc2c1 [tucatinib] ?
4.83

###

Experiment: Clinical plasma concentration of tucatinib
Assay type: in vivo
Settings: human, read-out: Mean clinical maximum observed concentration (Cmax)
quantity-name: Cmax

# lookup: Cmax of "Cc1cc(Nc2ncnc3ccc(NC4=NC(C)(C)CO4)cc23)ccc1Oc1ccn2ncnc2c1"
1000 to 2000 nM

These measurements were taken from patent US20220193076A1.
